Tested on: Vero E6 infected with SARS-CoV-2
assay procedure: inhibition of SARS-CoV-2 cytopathic effect; higher = more antiviral protection, active = above 15
assay conditions: 1 nM; 48 h
observation type: inhibition of SARS-CoV-2 cytopathic effect (%)
Give the value in % but do not write % after it.

Please review the entries below; each comes with its answer.
{"compound": "CCN(CC)CCOC(=O)C(c1ccccc1)C1CCCCC1 (centres undefined)", "number": -1.59}
{"compound": "CC(C)(C)c1nc(-c2cccc(NS(=O)(=O)c3c(F)cccc3F)c2F)c(-c2ccnc(N)n2)s1", "number": -0.66}
{"compound": "O=C1CC[C@@]2(O)[C@H]3Cc4ccc(O)c5c4[C@@]2(CCN3CC2CC2)[C@H]1O5", "number": 4.81}
{"compound": "CO[C@H]1CC[C@H](N(c2cc(C3=CCCCC3)sc2C(=O)O)C(=O)[C@H]2CC[C@H](C)CC2)CC1", "number": 0.5}
{"compound": "Nc1nc2cc(-c3ccc4ncc(C(=O)N5CCOCC5)n4c3)ccc2o1", "number": 0.78}

Task item: What measured inhibition of SARS-CoV-2 cytopathic effect is associated with CC1(C)CNc2cc(NC(=O)c3cccnc3NCc3ccncc3)ccc21 on Vero E6 infected with SARS-CoV-2?
Reply: -2.26

Task item: What measured inhibition of SARS-CoV-2 cytopathic effect is associated with COc1ccc(-c2ccc3ncc4c(c3c2)n(-c2ccc(N3CCNCC3)c(C(F)(F)F)c2)c(=O)n4C)cn1 on Vero E6 infected with SARS-CoV-2?
Reply: 0.99

Task item: What measured inhibition of SARS-CoV-2 cytopathic effect is associated with NC(=O)CN1C=CCC(C(N)=O)=C1 [caricotamide] on Vero E6 infected with SARS-CoV-2?
Reply: 0.48

Task item: What measured inhibition of SARS-CoV-2 cytopathic effect is associated with COc1ccc2c(c1)[C@]13CCCC[C@@H]1[C@H](C2)N(C)CC3 on Vero E6 infected with SARS-CoV-2?
Reply: 0.17
